biological target: Tubulin; experiment: Inhibition of tubulin polymerization (unknown origin) incubated for 15 mins followed by GTP addition and measured for 20 mins by spectrophotometry
PARAMETER_MEASURED: pIC50
Please note pIC50 is a logarithmic value: minus log10 of concentration in mol/L. Answer with that number alone.

Report the value of pIC50 obtained on Tubulin for `COc1cc(C(=O)c2cn(-c3ccc(Br)cc3)cc2-c2ccccc2)cc(OC)c1OC` . 6.18

Report the value of pIC50 obtained on Tubulin for `COc1ccccc1-n1cc(C(=O)c2cc(OC)c(OC)c(OC)c2)c(-c2ccccc2)c1` . 5.89

Report the value of pIC50 obtained on Tubulin for `COc1ccccc1-c1cn(-c2ccccc2)cc1C(=O)c1cc(OC)c(OC)c(OC)c1` . 6.26

Report the value of pIC50 obtained on Tubulin for `COc1cc(C(=O)c2cn(-c3cccc(N)c3)cc2-c2ccccc2[N+](=O)[O-])cc(OC)c1OC` . 6.15

Report the value of pIC50 obtained on Tubulin for `COc1cc(C(=O)c2cn(-c3ccc(N)cc3)cc2-c2ccccc2F)cc(OC)c1OC` . 6.23

Report the value of pIC50 obtained on Tubulin for `COc1cc(C(=O)c2cn(-c3ccc(N)cc3)cc2-c2ccc([N+](=O)[O-])cc2)cc(OC)c1OC` . 5.74

Report the value of pIC50 obtained on Tubulin for `COc1cc(C(=O)c2cn(-c3cccc(N)c3)cc2-c2ccc(N)cc2)cc(OC)c1OC` . 6.33

Report the value of pIC50 obtained on Tubulin for `COc1cc(C(=O)c2cn(-c3ccccc3)cc2-c2cc(F)ccc2F)cc(OC)c1OC` . 5.89
